Target: Human VPAC1 Receptor (Homo sapiens, UniProt P32241)
Construct: expressed in transfected cells
Sequence (P32241 31-457): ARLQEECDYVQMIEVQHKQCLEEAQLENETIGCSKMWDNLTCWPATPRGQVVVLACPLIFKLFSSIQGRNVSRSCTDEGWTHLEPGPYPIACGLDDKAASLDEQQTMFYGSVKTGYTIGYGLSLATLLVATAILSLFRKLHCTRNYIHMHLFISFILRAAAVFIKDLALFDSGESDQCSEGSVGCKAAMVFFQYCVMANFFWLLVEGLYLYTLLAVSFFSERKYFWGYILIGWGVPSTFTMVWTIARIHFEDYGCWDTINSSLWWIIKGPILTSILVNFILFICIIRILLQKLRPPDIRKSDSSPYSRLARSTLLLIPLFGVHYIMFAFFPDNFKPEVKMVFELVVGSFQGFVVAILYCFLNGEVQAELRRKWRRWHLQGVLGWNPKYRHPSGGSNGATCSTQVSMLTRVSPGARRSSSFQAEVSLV
Experiment: Filter binding assay, 125I-labeled VIP, membranes of cells transiently transfected with human VPAC1
Conditions: 125I-labeled VIP tracer
readout-type: IC50

Looking up C6-HSDAVFTEQY(OMe)TOrnLRAibQLAAbuAibOrnYLQSIOrnOrnC(PEG20K)GGPSSGAPPPC(PEG20K)-NH2 (HSDAVFTEQYTXLRXQLAXXXYLQSIXXCGGPSSGAPPPC; C6 acyl, two PEG20K, C-terminal amide; Synthetic sequence PEGylated VPAC2 receptor agonist) [Agonist P572] , I see its IC50 listed as > 25000 nM

The reported value for C6-HSDAVFTEQY(OMe)TOrnLRAibQLAAbuAibOrnYLQAibIOrnOrnGGPSSGAPPPC(PEG20K)C(PEG20K)-NH2 (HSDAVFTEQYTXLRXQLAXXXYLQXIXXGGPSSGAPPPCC; C6 acyl, two PEG20K, C-terminal amide; Synthetic sequence PEGylated VPAC2 receptor agonist) [Agonist P517] in terms of IC50 is > 25000 nM

Recorded result, C6-HSDAVFTEQY(OMe)TOrnLRAibQVAAAibK(W-PEG40K)YLQSIOrnOrnGGPSSGAPPPS-NH2 (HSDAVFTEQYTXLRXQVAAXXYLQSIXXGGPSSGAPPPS; C6 acyl; PEG40K; non-natural residues; amide; Synthetic sequence PEGylated VPAC2 receptor peptide agonist) [Agonist P410] , IC50: > 25000 nM

---

Consider the following substances; for each one, report its % increase AUC: Dose = 0.3 mg/kg.
System: Normal Wistar rats
Assay: Intravenous glucose tolerance test (IVGTT)
Format: in vivo, rat
Details: AUC insulin, 0-10 min after glucose; 0.3 mg/kg; 24 h between glucose & compound; Wistar rats
Protocol: Intravenous glucose tolerance test (IVGTT): Normal Wistar rats are fasted overnight and are anesthetized prior to the experiment. A blood sampling catheter is inserted into the rats. The agonist is given subcutaneously, normally 24 h prior to the glucose challenge. Blood samples are taken from the carotid artery. A blood sample is drawn immediately prior to the injection of glucose along with the agonist. […] The plasma is then analyzed for glucose and insulin using standard methodologies. […]
Where no end group is shown, it is not given here.
Report the figure in % without appending any unit label.

Noted for C6-HSDAVFTEQY(OMe)TOrnLRAibQVAAbuAibOrnYLQAibIOrnOrnGGPSSGAPPPC(PEG40K)-NH2 (HSDAVFTEQYTXLRXQVAXXXYLQXIXXGGPSSGAPPPC; C6 acyl, PEG40K on Cys, C-terminal amide; Synthetic sequence PEGylated VPAC2 receptor agonist) [Agonist P511] : its % increase AUC: Dose = 0.3 mg/kg reads 59

Just so you know, measured % increase AUC: Dose = 0.3 mg/kg for C6-HSDAVFTEQY(OMe)TOrnLRAibQLAAbuAibOrnYAibQAibIOrnOrnGGPSSGAPPPC(PEG20K)C(PEG20K)-NH2 (HSDAVFTEQYTXLRXQLAXXXYXQXIXXGGPSSGAPPPCC; C6 acyl, two PEG20K, C-terminal amide; Synthetic sequence PEGylated VPAC2 receptor agonist) [Agonist P525] came out at 208

Value of % increase AUC: Dose = 0.3 mg/kg reported for the substance C6-HSDAVFTEQY(OMe)TOrnLRAibQLAAbuAibOrnyAibQSIOrnOrnGGPSSGAPPPC(PEG30K)C(PEG30K)-NH2 (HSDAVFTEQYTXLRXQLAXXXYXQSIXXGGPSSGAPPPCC; not fully specified (some residues, N-terminus, C-terminus); printed as C6-HSDAVFTEQY(OMe)TOrnLRAibQLAAbuAibOrnyAibQSIOrnOrnGGPSSGAPPPC(PEG30K)C(PEG30K)-NH2; cysteine pairing not given here) [Agonist P602] is 198

The reported % increase AUC: Dose = 0.3 mg/kg of the substance C6-HSDAVFTEQY(OMe)TOrnLRAibQVAAAibOrnYLQSIOrnC(PEG20K)OrnGGPSSGAPPPC(PEG20K)-NH2 (HSDAVFTEQYTXLRXQVAAXXYLQSIXCXGGPSSGAPPPC; C6 acyl, two PEG20K, C-terminal amide; Synthetic sequence PEGylated VPAC2 receptor agonist) [Agonist P505] was 74

---

Target: Human PAC1 Receptor (Homo sapiens)
Construct: expressed in transfected cells
Sequence (P41586 21-468): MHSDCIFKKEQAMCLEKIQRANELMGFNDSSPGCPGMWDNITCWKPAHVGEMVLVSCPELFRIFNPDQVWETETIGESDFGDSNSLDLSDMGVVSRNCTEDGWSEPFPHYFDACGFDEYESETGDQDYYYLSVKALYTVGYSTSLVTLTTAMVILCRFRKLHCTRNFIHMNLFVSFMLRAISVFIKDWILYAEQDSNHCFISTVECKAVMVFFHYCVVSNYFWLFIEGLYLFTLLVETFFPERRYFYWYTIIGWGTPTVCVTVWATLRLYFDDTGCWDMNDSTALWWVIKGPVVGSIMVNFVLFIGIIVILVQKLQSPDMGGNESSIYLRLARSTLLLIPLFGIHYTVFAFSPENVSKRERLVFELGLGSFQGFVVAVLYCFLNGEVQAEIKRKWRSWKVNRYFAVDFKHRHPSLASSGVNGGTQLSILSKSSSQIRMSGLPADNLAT
Test: Filter binding assay, 125I-labeled PACAP-27, membranes of cells transiently transfected with human PAC1
Details: 125I-labeled PACAP-27 tracer
readout-type: IC50

Documented IC50 of C6-HSDAVFTEQY(OMe)TOrnLRAibQC(PEG40K)AAbuAibOrnYLQAibIOrnOrnGGPSSGAPPPS-NH2 (HSDAVFTEQYTXLRXQCAXXXYLQXIXXGGPSSGAPPPS; C6 acyl, PEG40K on Cys, C-terminal amide; Synthetic sequence PEGylated VPAC2 receptor agonist) [Agonist P545] : > 25000 nM

Form: substance = C6-HSDAVFTEQY(OMe)TOrnLRAibQLAAbuAibOrnY(OMe)LQAibIOrnOrnGGPSSGAPPPC(PEG20K)C(PEG20K)-NH2 (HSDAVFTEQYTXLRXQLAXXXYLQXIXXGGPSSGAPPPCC; C6 acyl, non-natural residues, two PEG20K, C-terminal amide; Synthetic sequence PEGylated VPAC2 receptor agonist) [Agonist P574] ; IC50 = > 25000 nM

---

test: Rat serum stability study (DiscoveRx cAMP read-out on CHO-VPAC2 cells); settings: 24 h in rat serum at 37° C.; EC50, 4° C./EC50, 37° C.; values >100% may represent release of intact peptide from the PEG conjugate
*1 amine or outer side, *2 acyl side, *3 side chain or, on linkers, in order; H or OH if unused. Primed or numbered codes have the meaning given here. Where no end group is shown, it is not given here. [ ]: non-standard residue; d: D form. The star is where a group is joined. Tyr(OMe)(3) = Tyr, methoxy (Y(OMe)), COc1ccc(C[C@H](N[*:1])C(=O)[*:2])cc1; WPEG40K = not defined here; Orn = NCCC[C@H](N)C(=O)O; Abu = CC[C@H](N)C(=O)O; Hexanoyl = CCCCCC(=O)*; Aib = CC(C)(N)C(=O)O
Task for the reader: assign each of the following substances its reported 24 h stab (%).
Provide the reading as a plain figure in %.

// C6-HSDAVFTEQY(OMe)TOrnLRAibQVAAAibOrnYLQSIOrnC(PEG20K)OrnGGPSSGAPPPC(PEG20K)-NH2 (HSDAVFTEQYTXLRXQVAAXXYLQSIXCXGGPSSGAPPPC; C6 acyl, two PEG20K, C-terminal amide; Synthetic sequence PEGylated VPAC2 receptor agonist) [Agonist P505] : 24 h stab (%) value = 133

The recorded 24 h stab (%) for C6-HSDAVFTEQY(OMe)TOrnLRAibQLAAbuAibOrnYLQSIOrnOrnC(PEG4OK)GGPSSGAPPPS-NH2 (HSDAVFTEQYTXLRXQLAXXXYLQSIXXCGGPSSGAPPPS; C6 acyl, PEG40K on Cys, C-terminal amide; Synthetic sequence PEGylated VPAC2 receptor agonist) [Agonist P566] is 152

Query C6-HSDAVFTEQY(OMe)TOrnLRAibQLAAbuAibOrnYLQSIOrnC(PEG20K)OrnGGPSSGAPPPC(PEG20K)-NH2 (HSDAVFTEQYTXLRXQLAXXXYLQSIXCXGGPSSGAPPPC; C6 acyl, two PEG20K, C-terminal amide; Synthetic sequence PEGylated VPAC2 receptor agonist) [Agonist P555] yields 24 h stab (%) of 117

Recorded result, C6-HSDAVFTEQY(OMe)TOrnLRAibQLAAbuAibOrnYLQSIOrnC(PEG40K)OrnGGPSSGAPPPS-NH2 (HSDAVFTEQYTXLRXQLAXXXYLQSIXCXGGPSSGAPPPS; C6 acyl, PEG40K on Cys, C-terminal amide; Synthetic sequence PEGylated VPAC2 receptor agonist) [Agonist P539] , 24 h stab (%): 123

Just so you know, measured 24 h stab (%) for C6-HSDAVFTEQY(OMe)TOrnLRC(PEG40K)QVAAAibOrnYLQSIOrnOrnGGPSSGAPPPS-NH2 (HSDAVFTEQYTXLRCQVAAXXYLQSIXXGGPSSGAPPPS; N-terminal C6 acyl, PEG40K on Cys, C-terminal amide; Synthetic sequence PEGylated VPAC2 receptor agonist) [Agonist P483] came out at 22

response.value for C6-HSDAVFTEQY(OMe)TOrnLRAibQVC(PEG40K)AAibOrnyLQSIOrnOrnGGPSSGAPPPS-NH2 [Agonist P478] (field: 24 h stab (%)) = 34

Memo: C6-HSDAVFTEQY(OMe)TOrnLRAibQVAAAibOrnYLQSIOrnOrnC(PEG20K)GGPSSGAPPPC(PEG20K)NH2 (HSDAVFTEQYTXLRXQVAAXXYLQSIXXCGGPSSGAPPPC; C6 acyl, two PEG20K, C-terminal amide; Synthetic sequence PEGylated VPAC2 receptor agonist) [Agonist P562] , reported 24 h stab (%): 213

Form field 24 h stab (%), entry C6-HSDAVFTEQY(OMe)TOrnLRAibQVAAAibK(CO(CH2)2SPEG40K)YLQSIOrnOrnGGPSSGAPPPS-NH2 (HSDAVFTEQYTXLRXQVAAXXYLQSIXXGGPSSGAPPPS; C6 acyl; PEG40K; non-natural residues; amide; Synthetic sequence PEGylated VPAC2 receptor peptide agonist) [Agonist P472] : 66

Looking up C6-HSDAVFTEQY(OMe)TOrnLRAibQLAAbuAibOrnyAibQSIOrnOrnGGPSSGAPPPC(PEG30K)C(PEG30K)-NH2 (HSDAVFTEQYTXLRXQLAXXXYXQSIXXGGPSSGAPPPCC; not fully specified (some residues, N-terminus, C-terminus); printed as C6-HSDAVFTEQY(OMe)TOrnLRAibQLAAbuAibOrnyAibQSIOrnOrnGGPSSGAPPPC(PEG30K)C(PEG30K)-NH2; cysteine pairing not given here) [Agonist P602] , I found its 24 h stab (%) recorded as 573

Recorded 24 h stab (%) (substance C6-HSDAVFTEQY(OMe)TOrnLRK(WPEG40K)QLAAbuAibOrnYLQAibIOrnOrnGGPSSGAPPPS-NH2 (Hexanoyl-HSDAVFTEQ[Tyr(OMe)(3)]T[Orn]LRK(WPEG40K)QLA[Abu][Aib][Orn]YLQ[Aib]I[Orn][Orn]GGPSSGAPPPS-NH2; reading uncertain) [Agonist P557] ): 131

The substance listed as C6-HSDAVFTEQY(OMe)TOrnLRAibQLAAAibOrnYLQSIOrnOrnC(PEG40K)GGPSSGAPPPS-NH2 (HSDAVFTEQYTXLRXQLAAXXYLQSIXXCGGPSSGAPPPS; C6 acyl, PEG40K on Cys, C-terminal amide; Synthetic sequence PEGylated VPAC2 receptor agonist) [Agonist P560] shows 24 h stab (%) equal to 192

The value of 24 h stab (%) measured for the substance C6-HSDAVFTEQY(OMe)TOrnLRAibQVAK(CO(CH2)2SPEG20K)AibOrnYLQSIOrnOrnGGPSSGAPPPC(PEG20K)-NH2 (HSDAVFTEQYTXLRXQVAXXXYLQSIXXGGPSSGAPPPC; C6 acyl, two PEG20K, C-terminal amide; Synthetic sequence PEGylated VPAC2 receptor agonist) [Agonist P492] turned out to be 131

Origin of measurements: patent US7897573B2
